# Tested on: Caco-2 cells
# test.name: LDH assay of AI-2 inhibitors
# stated.conditions: Caco-2, 100 µM, 24 h
Listed next: entries and their corresponding toxicity (LDH).
endpoint.label: toxicity (LDH) (%)

| compound | result |
| --- | --- |
| COC(=S)NN=Cc1cc(C)ccc1O | 12 |
| OCCC1CN(C2CCN(c3ccccc3)CC2)CCN1CCCc1ccccc1 (stereo not shown) | 27 |
| CCc1ccccc1Nc1nc(-c2c(C)nc3ccccn23)cs1 | 2 |
| O=[N+]([O-])c1cccc(S(=O)(=O)Nc2ccc(Br)cc2)c1 | 27 |

---

# System: AI-2 activity of APEC O35
# test.name: AI-2 bioluminescence indicator assay (V. harveyi BB170)
# stated.conditions: APEC O35, 100 µM
Listed next: entries and their corresponding Inhibition % of AI-2 activity.
endpoint.label: Inhibition % of AI-2 activity

| compound | target.desc | endpoint.label | result |
| --- | --- | --- | --- |
| Cc1ccccc1N1CCN(C2CCCN(C(=O)c3ccc(F)c(Cl)c3)C2)CC1 (stereo not drawn) | AI-2 activity of APEC O35 | Inhibition % of AI-2 activity | 55% |
| Fc1ccc(CN2CCCN(Cc3nc(-c4ccc(C(F)(F)F)cc4)no3)CC2)cc1 | AI-2 activity of APEC O35 | Inhibition % of AI-2 activity | 36% |
| NC(=O)c1ccccc1Nc1cccc(C(F)(F)F)c1 | AI-2 activity of APEC O35 | Inhibition % of AI-2 activity | 37% |
| Cc1ccc(CN2CCN(CCCc3ccccc3)CC2)cc1 | AI-2 activity of APEC O35 | Inhibition % of AI-2 activity | 68% |
| OCCC1CN(C2CCN(c3ccccc3)CC2)CCN1CCCc1ccccc1 (stereo not drawn) | AI-2 activity of APEC O35 | Inhibition % of AI-2 activity | 47% |
| COC(=S)NN=Cc1cc(C)ccc1O | AI-2 activity of APEC O35 | Inhibition % of AI-2 activity | 60% |

---

# Tested on: AI-2 activity of APEC O35
# test.name: AI-2 bioluminescence indicator assay (V. harveyi BB170)
# stated.conditions: APEC O35, 100 µM
Listed next: entries and their corresponding Inhibition % of AI-2 activity.

| molecule.smiles | Inhibition % of AI-2 activity [%] |
| --- | --- |
| COCCN1CCC(CN(Cc2ccncc2)Cc2ccccc2Cl)CC1 | 48 |
| O=C(CCN1CCN(c2ccccc2F)CC1)Nc1ccc(Br)cc1 | 62 |
| CCc1ccccc1Nc1nc(-c2c(C)nc3ccccn23)cs1 | 57 |

---

# Test system: AI-2 activity of APEC O109
# test.name: AI-2 bioluminescence indicator assay (V. harveyi BB170)
# stated.conditions: APEC O109, 100 µM

| molecule | target.desc | Inhibition % of AI-2 activity, % |
| --- | --- | --- |
| Cc1ccc(CN2CCN(CCCc3ccccc3)CC2)cc1 [C5] | AI-2 activity of APEC O109 | 69 |
| Cc1ccccc1N1CCN(C2CCCN(C(=O)c3ccc(F)c(Cl)c3)C2)CC1 (centres unmarked) [C2] | AI-2 activity of APEC O109 | 57 |
| COC(=S)NN=Cc1cc(C)ccc1O [C4] | AI-2 activity of APEC O109 | 67 |
| OCCC1CN(C2CCN(c3ccccc3)CC2)CCN1CCCc1ccccc1 (centres unmarked) [C10] | AI-2 activity of APEC O109 | 57 |
| O=C(CCN1CCN(c2ccccc2F)CC1)Nc1ccc(Br)cc1 [C7] | AI-2 activity of APEC O109 | 67 |
| COCCN1CCC(CN(Cc2ccncc2)Cc2ccccc2Cl)CC1 [C1] | AI-2 activity of APEC O109 | 65 |
| NC(=O)c1ccccc1Nc1cccc(C(F)(F)F)c1 [C3] | AI-2 activity of APEC O109 | 0 |
| Fc1ccc(CN2CCCN(Cc3nc(-c4ccc(C(F)(F)F)cc4)no3)CC2)cc1 [C9] | AI-2 activity of APEC O109 | 66 |

---

Listed next: entries and their corresponding MIC.
# Tested on: APEC O1
# Assay type: cell-based, avian pathogenic Escherichia coli (APEC)
# stated.conditions: APEC O1, M63 media; MIC/MBC

| molecule | MIC (µM) |
| --- | --- |
| COc1cc(CNCCc2ccc(C)cc2)ccc1OCC(O)CN1CCCC1 (stereo not shown) | 100 |
| CCCCCCCCCCCCCCCC[n+]1ccn(CC#N)c1 | 12.5 |
| CC1CCCN(CCC(=O)c2ccc(Br)cc2)C1.Cl (stereo not shown) | 200 |
| CC1CCC(C(C)C)C(OC(=O)Cn2c[n+](CC(=O)OC3CC(C)CCC3C(C)C)c3ccccc32)C1.[Cl-] (stereo not shown) | 25 |
| COc1ccc(CCN(Cc2cc3c(cc2Cl)OCO3)CC2CCN(C)CC2)cc1 | 100 |
| CCCCCCCCCCCCCCCCn1c[n+](C)c2ccccc21.[Br-] | 12.5 |
| CCN1C(=Cc2ccc3ccccc3[n+]2CC)C=Cc2ccccc21.[Cl-] | 25 |
| CC(=O)OC(C(Br)C(=O)c1ccc([N+](=O)[O-])cc1)C(Cl)(Cl)Cl (stereo not shown) | 25 |
| COc1cc(CNCCc2ccc3ccccc3c2)ccc1OCC(O)CN1CCCC1 (stereo not shown) | 200 |
| COc1ccc(CNCc2cccc(C(F)(F)F)c2)cc1OCC(O)CN1CCCC1 (stereo not shown) | 50 |

---

# Tested on: APEC O35
# Assay type: cell-based, avian pathogenic Escherichia coli (APEC)
# stated.conditions: APEC O35, M63 media; MIC/MBC

| compound | MBC |
| --- | --- |
| CCCCCCCCCCCCCCCC[n+]1ccn(CC#N)c1 | 25 µM |
| COc1cc(CNCCc2ccc(C)cc2)ccc1OCC(O)CN1CCCC1 (stereo not shown) | 200 µM |
| CCCCCCCCCCCCCCCCn1c[n+](C)c2ccccc21.[Br-] | 25 µM |
| CC1CCCN(CCC(=O)c2ccc(Br)cc2)C1.Cl (stereo not shown) | 200 µM |
| CC(=O)OC(C(Br)C(=O)c1ccc([N+](=O)[O-])cc1)C(Cl)(Cl)Cl (stereo not shown) | 50 µM |
| COc1ccc(CNCc2cccc(C(F)(F)F)c2)cc1OCC(O)CN1CCCC1 (stereo not shown) | 50 µM |
| CCN1C(=Cc2ccc3ccccc3[n+]2CC)C=Cc2ccccc21.[Cl-] | 50 µM |
| COc1cc(CNCCc2ccc3ccccc3c2)ccc1OCC(O)CN1CCCC1 (stereo not shown) | 200 µM |
| CC1CCC(C(C)C)C(OC(=O)Cn2c[n+](CC(=O)OC3CC(C)CCC3C(C)C)c3ccccc32)C1.[Cl-] (stereo not shown) | 25 µM |
| COc1ccc(CCN(Cc2cc3c(cc2Cl)OCO3)CC2CCN(C)CC2)cc1 | 200 µM |

---

# Test system: APEC O109
# Assay type: cell-based, avian pathogenic Escherichia coli (APEC)
# stated.conditions: APEC O109, M63 media; MIC/MBC

| molecule | MIC |
| --- | --- |
| CC1CCCN(CCC(=O)c2ccc(Br)cc2)C1.Cl (stereo not shown) | 200 µM |
| CC1CCC(C(C)C)C(OC(=O)Cn2c[n+](CC(=O)OC3CC(C)CCC3C(C)C)c3ccccc32)C1.[Cl-] (stereo not shown) | 25 µM |
| CCCCCCCCCCCCCCCC[n+]1ccn(CC#N)c1 | 12.5 µM |
| COc1ccc(CCN(Cc2cc3c(cc2Cl)OCO3)CC2CCN(C)CC2)cc1 | 200 µM |
| CCCCCCCCCCCCCCCCn1c[n+](C)c2ccccc21.[Br-] | 12.5 µM |
| COc1ccc(CNCc2cccc(C(F)(F)F)c2)cc1OCC(O)CN1CCCC1 (stereo not shown) | 100 µM |
| COc1cc(CNCCc2ccc3ccccc3c2)ccc1OCC(O)CN1CCCC1 (stereo not shown) | 100 µM |
| CCN1C(=Cc2ccc3ccccc3[n+]2CC)C=Cc2ccccc21.[Cl-] | 25 µM |
| COc1cc(CNCCc2ccc(C)cc2)ccc1OCC(O)CN1CCCC1 (stereo not shown) | 100 µM |
| CC(=O)OC(C(Br)C(=O)c1ccc([N+](=O)[O-])cc1)C(Cl)(Cl)Cl (stereo not shown) | 25 µM |

---

# Tested on: Rif^r APEC O78
# test.name: In vivo efficacy of growth inhibitors in APEC infected broiler chickens
# stated.conditions: vs untreated control
Listed next: entries and their corresponding reduction of APEC load, Liver.

| molecule | reduction of APEC load, Liver |
| --- | --- |
| CCCCCCCCCCCCCCCC[n+]1ccn(CC#N)c1 | 1.2 log CFU/g of tissues |
| COc1ccc(CNCc2cccc(C(F)(F)F)c2)cc1OCC(O)CN1CCCC1 (stereo not shown) | 2.5 log CFU/g of tissues |
| CC1CCCN(CCC(=O)c2ccc(Br)cc2)C1.Cl (stereo not shown) | -2.0 log CFU/g of tissues |
| CCN1C(=Cc2ccc3ccccc3[n+]2CC)C=Cc2ccccc21.[Cl-] | -0.1 log CFU/g of tissues |
| COc1cc(CNCCc2ccc(C)cc2)ccc1OCC(O)CN1CCCC1 (stereo not shown) | -1.8 log CFU/g of tissues |
| COc1cc(CNCCc2ccc3ccccc3c2)ccc1OCC(O)CN1CCCC1 (stereo not shown) | 1.2 log CFU/g of tissues |
| CC(=O)OC(C(Br)C(=O)c1ccc([N+](=O)[O-])cc1)C(Cl)(Cl)Cl (stereo not shown) | 0.8 log CFU/g of tissues |
